Readings of Ki for the listed compounds
Molecular target: Rhesus PDE2A3 (Macaca mulatta, UniProt B3VTJ2)
Construct: made in house; host or cells: AD293 cells, transient transfection, pcDNA3.3-TOPO; lysate supernatant used as enzyme
Sequence (B3VTJ2 1-941): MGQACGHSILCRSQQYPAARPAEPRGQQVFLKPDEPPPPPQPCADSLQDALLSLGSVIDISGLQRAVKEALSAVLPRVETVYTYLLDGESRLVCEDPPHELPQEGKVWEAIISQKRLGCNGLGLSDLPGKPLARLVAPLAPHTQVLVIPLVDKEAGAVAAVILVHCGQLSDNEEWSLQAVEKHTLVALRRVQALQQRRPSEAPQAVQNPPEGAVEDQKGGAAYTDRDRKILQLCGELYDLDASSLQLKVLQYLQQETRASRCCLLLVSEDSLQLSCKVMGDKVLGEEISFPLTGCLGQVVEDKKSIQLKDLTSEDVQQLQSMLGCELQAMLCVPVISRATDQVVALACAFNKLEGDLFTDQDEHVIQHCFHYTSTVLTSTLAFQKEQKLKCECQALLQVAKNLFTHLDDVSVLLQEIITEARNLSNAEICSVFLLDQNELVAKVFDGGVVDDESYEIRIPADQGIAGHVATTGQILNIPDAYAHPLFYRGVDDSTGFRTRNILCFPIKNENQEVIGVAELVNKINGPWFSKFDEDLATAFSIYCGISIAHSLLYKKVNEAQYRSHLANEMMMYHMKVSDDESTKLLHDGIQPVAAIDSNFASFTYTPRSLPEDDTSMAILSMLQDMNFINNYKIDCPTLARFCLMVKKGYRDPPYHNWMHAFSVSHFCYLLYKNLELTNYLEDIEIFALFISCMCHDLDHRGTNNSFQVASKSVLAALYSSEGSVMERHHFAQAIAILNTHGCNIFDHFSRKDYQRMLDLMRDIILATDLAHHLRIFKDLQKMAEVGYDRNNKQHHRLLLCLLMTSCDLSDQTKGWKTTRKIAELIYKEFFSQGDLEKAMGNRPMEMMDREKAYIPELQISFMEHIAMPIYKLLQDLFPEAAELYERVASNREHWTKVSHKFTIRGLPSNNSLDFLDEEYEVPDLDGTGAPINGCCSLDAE
Assay: PDE2 fluorescence polarization (IMAP FP) inhibition assay, rhesus enzyme
Type: biochemical, rhesus macaque
Settings: Lab B; read-out: Rhesus PDE2 Ki (nM) Lab B
Value expressed in nM; do not type the unit.

Example compounds with recorded Ki:
What value of measured Ki is listed for Cc1nc(-c2cnn(C(C)c3ccccc3)c2)cc(=O)[nH]1 (centres unmarked) ?
4890

What value of measured Ki is listed for Cc1nc(-n2cc([C@H](C)c3ccc(C(F)(F)F)cc3)cn2)cc(=O)[nH]1 (single isomer, unassigned) [Example 3] ?
93

What value of measured Ki is listed for COc1cccc(Cc2nc(-c3cnn(C(C)c4ccc(C(F)(F)F)cc4F)c3)cc(=O)[nH]2)c1 (single isomer, unassigned) [Example 140] ?
0.8

What value of measured Ki is listed for Cc1nc(-c2cnn(C(C)c3ccc(C(F)(F)F)cc3)c2C)cc(=O)[nH]1 (single isomer, unassigned) [Example 81] ?
232

What value of measured Ki is listed for CCCC(c1ccc(C(F)(F)F)cc1)n1ccc(-c2cc(=O)[nH]c(C)n2)n1 (centres unmarked) ?
2300

What value of measured Ki is listed for Cc1nc(-n2cc(C(C)c3ccncc3)cn2)cc(=O)[nH]1 (centres unmarked) ?
18200

Next item in the queue.
What value of measured Ki is listed for Cc1nc(-n2cc(C3(C)OCc4cc(C(F)(F)F)ccc43)cn2)cc(=O)[nH]1 (single isomer, unassigned) [Example 27] ?
98
